Assay remarks: HepG2 cell viability effects, profiling panel, calcein-AM fluorescence, 48 h, basal (AID 1164)
Protocol conditions: higher = more signal
Value type: z-score
Response field accepts a number only; no unit should be typed.

As a guide, the following entries are already answered.
COC(=O)[C@@]1(Cc2ccccc2)[C@H]2c3cc(C(=O)N4CCCC4)n(C[C@H](O)CO)c3C[C@H]2CN1C(=O)c1ccccc1	0.0709
C=CC[C@H](OC(=O)Nc1ccc(OC)cc1)c1ccc(O)c2ccccc12	-3.1
[N-]=[N+]=Nc1ccccc1C[C@@]1(C(=O)O)N=C(c2ccc(OCCCO)cc2)O[C@@H]1c1ccccc1	-0.222
COc1ccc(NN2C(C(O)c3ccccn3)C=CC3C(=O)N(C4CCCCC4)C(=O)C32)cc1 (stereo not drawn)	1.44
CN1C2C=C(CCCO)C(C3C(=O)N(C(N)=O)C(=O)C32)C1c1cccs1 (stereo not drawn)	-0.099
COc1ccc(C(O)C2C=CC3C(=O)N(c4ccccc4)C(=O)C3N2Nc2ccc(C#N)cc2)c2ccccc12 (stereo not drawn)	0.66
CC(C)C(O)C1C=CC2C(=O)N(C)C(=O)C2N1N(c1ccccc1)c1ccccc1 (stereo not drawn)	0.689

Q: I am curious: what z-score value has been reported for COc1ccccc1CN1C(=O)c2ccccc2[C@](Cc2ccccc2I)(C(=O)NC(C)C)[C@@H]1c1ccc(CO)cc1 ?
Result: -0.185

* * *

Assay remarks: E. coli acrAB mutant growth effects, primary screen, E. coli filamentation inducers, strain DRC39, OD650, 24 h (AID 1178);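 also: growth measured as culture turbidity by optical density at 650 nm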
Protocol conditions: higher = more signal, called active from +8 up or from −8 down
// bucketize z-score: class 0 = under -0.1, class 1 = from -0.1 up to 0.3, class 2 = 0.3 and over

Field: example entries. Status: answers known.
C[C@]1(C(=O)NCCN2CCOCC2)c2ccccc2C(=O)N(Cc2ccc(OC(F)(F)F)cc2)[C@H]1c1ccc(CO)cc1	class 2
CCOC(=CC(=O)OC)CC(O)c1cccc(Cl)c1 (centres undefined)	class 1
COc1cc2c(cc1O)C(C)N(Cc1cc3c(cc1Br)OCO3)CC2 (centres undefined)	class 2
O=C1NC(=O)C2C1C=CC(C(O)c1ccc3c(c1)OCO3)N2Nc1ccccn1 (centres undefined)	class 2
CN(C)CCCCNC(=O)[C@H]1C[C@H]2C(=O)N[C@@H](CCCCN(C)C)C(=O)N2[C@H]1c1cccc(OCCO)c1	class 1
COc1ccc(NN2C(C(O)c3ccco3)C=CC3C(=O)N(C4CCCCC4)C(=O)C32)cc1 (centres undefined)	class 0
O=C(CCCCCCC(=O)Nc1ccccc1)N/N=C/c1ccccc1	class 2
CN(C)CCCNC(=O)[C@@H]1c2ccccc2C(=O)N(Cc2ccc(OC(F)(F)F)cc2)[C@H]1c1ccc(CO)cc1	class 2
CN1C(=O)C2C=CC(C(O)Cc3ccccc3)N(N(c3ccccc3)c3ccccc3)C2C1=O (centres undefined)	class 0
CN(C)CCCNC(=O)[C@@H]1c2ccccc2C(=O)N(CC23CC4CC(CC(C4)C2)C3)[C@H]1c1ccc(CO)cc1	class 2

Q: Which class holds O=C1OC[C@@H](c2ccccc2)N2CC(/C=C/c3ccccc3)=CC12 (some centres undefined) ?
Result: class 0

Q: Which class holds CC(C)C(=C=CC[C@H](O)c1ccc(OCCO)cc1)C[C@H](O)c1cc(Cl)cc(Cl)c1O ?
Result: class 2

Q: Which class holds CO[C@H]1O[C@H](CO)[C@@H](OC(=O)Nc2ccccc2-c2ccccc2)[C@H](OC(=O)Nc2ccc3c(c2)OCO3)[C@@H]1OC(=O)Nc1ccc2c(c1)OCO2 ?
Result: class 2

* * *

Tested on: Sam68 (KHDRBS1)
Assay remarks: Sam68 small-molecule binders, primary screen, biochemical, small-molecule microarray, 635 nm fluorescence (AID 1125);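 also: score merges 667 nm channel intensity with signal to noise over triplicate slides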
Protocol conditions: small-molecule microarray binding, higher = more signal
Value type: composite z-score
Response field accepts a number only; no unit should be typed.

COc1ccc(C(O)C2C=CC3C(=O)N(c4ccccc4)C(=O)C3N2Nc2ccccc2)cc1OCc1ccccc1 (configuration not stated)	1.31
CC1CC/C=C\[C@H]2OC34C=CCN(CCN5CCOCC5)C(=O)[C@H]3N(CCO)C(=O)[C@@H]4C2C(=O)O1 (some centres not stated)	-2.29
COC(=O)[C@@]1(Cc2ccccc2)[C@H]2c3cc(C(=O)N4CCCC4)n(Cc4cc(F)cc5c4OCOC5)c3C[C@H]2CN1C(=O)c1ccccc1	0.797
COCCCNC(=O)[C@]1(Cc2ccccc2N=[N+]=[N-])N=C(c2ccc(OCCCO)cc2)O[C@@H]1c1ccccc1N=[N+]=[N-]	1.3
O=C1C[C@@](C(=O)NCC(F)(F)F)(c2ccc([N+](=O)[O-])cc2)[C@@H](c2ccc(CO)cc2)N1C1CCCCC1	1.29

Q: I am curious: what composite z-score value has been reported for NCCCCCCNC(=O)[C@@H]1C[C@@H]2C(=O)N3CCC[C@H]3C(=O)N2[C@@H]1c1ccc(O)cc1 ?
Result: 1.25

Q: I am curious: what composite z-score value has been reported for COCCOC(=O)N1C(=O)[C@@]2(c3cc(C#CC4(O)CCCCCC4)ccc31)[C@H](C(=O)N1CCCCCCC1)[C@H]1C(=O)O[C@H](c3ccccc3)[C@H](c3ccccc3)N1[C@@H]2c1ccc(OCCO)cc1 ?
Result: 1.29

* * *

Assay remarks: small-molecule binders of probe aLefty1, primary screen, biochemical, small-molecule microarray, 635/667 nm fluorescence (AID 1153);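 also: score merges spot fluorescence with signal-to-noise ratio from the scanned slide images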
Protocol conditions: higher = more signal
Value type: composite z-score
Response field accepts a number only; no unit should be typed.

As a guide, the following entries are already answered.
COC(=O)C(CC#Cc1ccc2c(c1)[C@]1(C(=O)N2)[C@H](C(=O)O)[C@H]2C(=O)O[C@H](c3ccccc3)[C@H](c3ccccc3)N2[C@@H]1c1ccccc1OCCO)C(=O)OC	0.658
C=C1C2CC3C(=C4C(CO[C@@H]4[C@H]4CCCN4S(=O)(=O)c4ccccc4[N+](=O)[O-])C4C(=O)N(C)C(=O)C34)CC2C(=O)N1C (stereo not given in full)	-0.147
COCCCNC(=O)[C@]1(Cc2ccccc2N=[N+]=[N-])N=C(c2ccc(OCCCO)cc2)O[C@@H]1c1ccccc1N=[N+]=[N-]	0.616

Q: I am curious: what composite z-score value has been reported for O=C(O)[C@H]1C[C@H]2C(=O)N3CCC[C@H]3C(=O)N2[C@H]1c1cccc(OCCO)c1 ?
Result: -0.017

Q: I am curious: what composite z-score value has been reported for NC(=O)NCC#Cc1ccc2c(c1)[C@]1(C(=O)N2)[C@H](C(=O)O)[C@H]2C(=O)O[C@H](c3ccccc3)[C@H](c3ccccc3)N2[C@@H]1c1ccccc1OCCO ?
Result: 0.73

* * *

Tested on: XIP peptide (Xip251-270)
Assay remarks: small-molecule binders of XIP peptide, primary screen, biochemical, small-molecule microarray, fluorescence 635/667 nm, 0.5 µg/mL protein (AID 1183)
Protocol conditions: small-molecule microarray binding, fluorescence 635 nm; higher = more signal
Returns one of criterion met or criterion not met; criterion met when composite z-score is >= 0.6.

Field: example entries. Status: answers known.
NCCCCCCNC(=O)[C@H]1C[C@H]2C(=O)N[C@@H](Cc3ccccc3)C(=O)N2[C@H]1c1ccc(O)cc1	criterion met
C=C(C(=O)CC[C@H](OC(=O)c1cccnc1)c1ccc(CO)o1)C(C)C	criterion met

Q: Threshold query (composite z-score >= 0.6) on COCCOC(=O)N1C(=O)[C@@]2(c3cc(C#CC4=CCCCC4)ccc31)[C@H](c1ccccc1OCCO)N1[C@H](c3ccccc3)[C@H](c3ccccc3)OC(=O)[C@H]1[C@@H]2C(=O)N1CCc2cc(OC)c(OC)cc2C1
Result: criterion met

Q: Threshold query (composite z-score >= 0.6) on CC(C)NC(=O)[C@@]1(C)c2ccccc2C(=O)N(C(C)C)[C@H]1c1ccc(CO)cc1
Result: criterion met

Q: Threshold query (composite z-score >= 0.6) on COC(=O)[C@]1(CCS(=O)(=O)c2ccccc2)N=C(c2ccc(OCCCO)cc2)O[C@@H]1c1ccccc1CN=[N+]=[N-]
Result: criterion met

Q: Threshold query (composite z-score >= 0.6) on CCOC(=O)C[C@H]1[C@H](OC(=O)c2ccc(-c3ccccc3)cc2)[C@@H](NC(=O)C2CCCCC2)c2cc(OCCCO)ccc2N1C(=O)c1ccccc1
Result: criterion not met

Q: Threshold query (composite z-score >= 0.6) on O=C1OCCC=C[C@H]2OC34C=CCN(c5ccc(Cl)cc5)C(=O)[C@H]3N(CCCCCO)C(=O)[C@@H]4C12 (some centres not stated)
Result: criterion not met

* * *

z-score reference
Assay remarks: E. coli acrAB mutant growth effects, primary screen, E. coli filamentation inducers, strain DRC39, OD650, 24 h (AID 1178);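 also: growth measured as culture turbidity by optical density at 650 nm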
Protocol conditions: higher = more signal, called active from +8 up or from −8 down
Response field accepts a number only; no unit should be typed.

COc1ccc(C(O)C2C=CC3C(=O)N(C)C(=O)C3N2N2CCCCC2)cc1 (configuration not stated)	-0.584
O=C1C2C=CC(C(O)c3cc(C(F)(F)F)cc(C(F)(F)F)c3)N(Nc3ccc([N+](=O)[O-])cc3)C2C(=O)N1c1ccccc1 (configuration not stated)	-2.26
CN(C)CCCNC(=O)[C@@]1(c2ccc([N+](=O)[O-])cc2)CC(=O)N(CC23CC4CC(CC(C4)C2)C3)[C@@H]1c1ccc(CO)cc1	0.325
COC1(C)CN(Cc2ccccc2Br)[C@H](/C=C/c2ccccc2)[C@H](Cc2ccccc2)O1 (some centres not stated)	0.531
O=C1NCC(=O)N2[C@@H]1C[C@@H](C(=O)O)[C@H]2c1ccc(O)cc1	-0.42

Q: I am curious: what z-score value has been reported for C=CCOC(=O)[C@@H]1[C@H]2C(=O)O[C@H](c3ccccc3)[C@H](c3ccccc3)N2[C@H](c2ccc(OCCOC(=O)[C@H]3C[C@H]4C(=O)N[C@@H](CC(C)C)C(=O)N4[C@H]3c3ccc(O)cc3)cc2)[C@@]12C(=O)Nc1ccc(I)cc12 ?
Result: 0.869

Q: I am curious: what z-score value has been reported for C[C@H]1C2=C3C(CC[C@H]4C(OCc5ccc(F)cc5C(F)(F)F)OC[C@](C)([C@@H]34)N(C(=O)OC(C)(C)C)C2)C2COC(=O)OCC21 (some centres not stated) ?
Result: -0.698
